Reported Kd values are given for each entry in this list.
- assayed target: human ATP Binding Cassette Subfamily C Member 1 (ABCC1) (UniProt P33527 1-1531)
- procedure summary: FACS cell binding

Item: C1.844.hu21 (antibody, V domains shown) VH: EVQLVESGGGLIQPGGSLRLSCAVSGFSLTSNGVIWVRQPPGKGLEWIAAISSGGNIYYNSGLKSRLTISRDTSKNTVYLQMNSLRAEDTAVYYCTRARGTTTAYVMDAWGQGTLVTVSS VL: DIVMTQSPDSLAVSLGERATINCKSSQSLLYSVNQKNYLAWYQQKPGQSPKLLIYWASTRQSGVPDRFSGSGSGTDFTLTISSLQAEDVAVYYCQQYYDTLMKMFGAGTKLELK | Kd: 103 nM

Next item in the queue.
Entry C1.831.hu11 (antibody, V domains shown) VH: EVQLQESGPGLVKPSETLSLTCTVSGFSLTSNGVSWVRQPPGKGLEWIAAISSGGNIYYNSVLKSRLTISRDTSKNQVSLKLSSVTAADTAVYYCTRERGWNYPFITNGYYFDYWGQGTLVTVSS VL: DIQLTQSPSSLSASVGDRVTITCKAGQNINNYLAWYQQKPGKAPKLLIYNANSLQTGIPSRFSGSGSGTDYTLTISSLQPEDFATYYCQQYNSWYTFGQGTKLEIK , Kd reported as 21 nM
